Species on record: Rattus norvegicus
Assay: DrugMatrix - Regimen: Daily Repeat
Format: toxicity, organism-based, Sprague-Dawley
Parameters: regimen Daily Repeat, gender Male, age 6-8 weeks
Conditions: in vivo, sc, 2 mg/kg, […], tissue Blood, route mini-PUMP - SUBCUTANEOUS, dose level High, time 14 day, vehicle 100 % SALINE
recorded endpoint: ABSOLUTE BASOPHIL (cells/µL)
Express the result in cells/µL but write the number alone.

So, CC(C)NCC(O)c1ccc(O)c(O)c1 (stereo unspecified) [ISOPROTERENOL] ? Its ABSOLUTE BASOPHIL was 60

###

Species on record: Rattus norvegicus
Test: DrugMatrix - Regimen: Daily Repeat
Format: toxicity, organism-based, Sprague-Dawley
Parameters: regimen Daily Repeat, gender Male, age 6-8 weeks
Details: in vivo, po, 10 mg/kg, 72 h, tissue Plasma, route oral GAVAGE, dose level Low, time 3 day, vehicle .5 % CMC
Here, each record is paired with measured CHLORIDE data.
Enter your answer as a number in MEQ/L; do not include the unit.

Below, 3 compounds whose answers are already recorded.
compound | CHLORIDE / MEQ/L
O=C1C(CC[S+]([O-])c2ccccc2)C(=O)N(c2ccccc2)N1c1ccccc1 (centres undefined) | 100.33
CNCCC(Oc1ccc(C(F)(F)F)cc1)c1ccccc1 (centres undefined) | 99.33
O=C1CN=C(c2ccccc2Cl)c2cc([N+](=O)[O-])ccc2N1 | 101.67

Then this compound:
Looking up Fc1ccc(C(c2ccc(F)cc2)N2CCN(C/C=C/c3ccccc3)CC2)cc1 , I found its CHLORIDE recorded as 101

###

Species on record: Rattus norvegicus
Experiment: DrugMatrix - Regimen: Daily Repeat
Assay type: toxicity, organism-based, Sprague-Dawley
Set-up: regimen Daily Repeat, gender Male, age 6-8 weeks
Settings: in vivo, sc, 0 mg/kg, 120 h, tissue Blood, route subcutaneous, dose level Control, time 5 day, […]
recorded endpoint: MONOCYTE (%)
Give the number; % is assumed, so skip it.

Consider the worked cases shown below.
molecule | unit annotation | MONOCYTE
O=C(Nc1ccc(Br)cc1)c1cc(Br)cc(Br)c1O [TRIBROMSALAN] | % | 0.5
CCC(=O)O[C@]1(C(=O)CCl)[C@@H](C)C[C@H]2[C@@H]3CCC4=CC(=O)C=C[C@]4(C)[C@@]3(F)[C@@H](O)C[C@@]21C [CLOBETASOL PROPIONATE] | % | 0.5
CCN(CC)CCOCCC1=CCC2CC1C2(C)C (stereo not given) [MYRTECAINE] | % | 1.33
CC(C)(C)CC(C)(C)c1ccc(OCCOCC[N+](C)(C)Cc2ccccc2)cc1.[Cl-] [BENZETHONIUM CHLORIDE] | % | 1.83

Here is the next item to consider.
Measured MONOCYTE of Oc1c(Cl)cc(Cl)c(Cl)c1Cc1c(O)c(Cl)cc(Cl)c1Cl [HEXACHLOROPHENE] : 1.83

###

Organism: Rattus norvegicus
Experiment: DrugMatrix - Regimen: Daily Repeat
Type: toxicity, organism-based, Sprague-Dawley
Design: regimen Daily Repeat, gender Male, age 6-8 weeks
Details: in vivo, po, 0 mg/kg, 120 h, tissue Plasma, route oral GAVAGE, dose level Control, time 5 day, vehicle .5 % CMC
recorded endpoint: ALKALINE PHOSPHATASE (u/L)
Please state the figure in u/L; there is no need to write the unit.

compound | measured value
CC(C(=O)O)c1ccc2oc(-c3ccc(Cl)cc3)nc2c1 (stereo not given) [BENOXAPROFEN] | 342.6
CC(=O)Oc1ccc(C(c2ccc(OC(C)=O)cc2)c2ccccn2)cc1 [BISACODYL] | 342.5

ALKALINE PHOSPHATASE for O=C1Nc2ccc(Cl)cc2C(c2ccccc2Cl)=NC1O (stereo not given) [LORAZEPAM] is 352.33

Recorded ALKALINE PHOSPHATASE (compound COc1ccc(C2C(=O)c3ccccc3C2=O)cc1 [ANISINDIONE] ): 316.67

compound NCCCC(O)(P(=O)(O)O)P(=O)(O)O [ALENDRONIC ACID] , ALKALINE PHOSPHATASE observed: 316.67
